Known EC50 of a selection of molecules
Molecular target: human GLP-1R receptor (Homo sapiens (Human), UniProt P43220, L260F)
Sequence (P43220 24-463 L260F): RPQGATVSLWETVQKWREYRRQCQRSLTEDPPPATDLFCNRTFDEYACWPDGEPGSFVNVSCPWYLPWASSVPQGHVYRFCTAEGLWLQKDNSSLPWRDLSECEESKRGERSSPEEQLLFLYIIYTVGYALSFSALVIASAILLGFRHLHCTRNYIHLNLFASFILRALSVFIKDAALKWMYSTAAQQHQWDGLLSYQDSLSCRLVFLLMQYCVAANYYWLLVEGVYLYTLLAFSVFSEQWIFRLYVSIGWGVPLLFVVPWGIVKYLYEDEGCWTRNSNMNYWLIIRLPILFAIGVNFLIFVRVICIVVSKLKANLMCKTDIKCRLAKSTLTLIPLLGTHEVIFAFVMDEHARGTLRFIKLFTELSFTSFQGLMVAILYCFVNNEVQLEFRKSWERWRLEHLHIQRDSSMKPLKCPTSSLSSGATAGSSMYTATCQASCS
Experiment: CHOK1 GLP-1R cAMP Assay
Conditions: CHO-K1 cell line stably expressing human GLP-1R; HTRF cAMP; agonist activity
Just the number in nM, nothing appended.

Query string: // returns reported EC50 for input CCn1cncc1Cn1c(CN2C[C@@H]3[C@H](C2)[C@H]3c2nc(OCc3ccc(Cl)cc3F)ccc2F)nc2c(OC)cc(C(=O)O)cc21 [Example 17]
Result string: 15

Query string: // returns reported EC50 for input O=C(O)c1cc(F)c2nc(CN3C[C@@H]4[C@H](C3)[C@H]4c3cccc(OCc4ccc(Cl)cc4F)n3)n(C[C@@H]3CCO3)c2c1 [Example 15]
Result string: 57

Query string: // returns reported EC50 for input N#Cc1ccc(COc2cccc([C@H]3[C@@H]4CN(Cc5nc6ccc(C(=O)O)cc6n5C[C@@H]5CCO5)C[C@@H]43)n2)c(F)c1 [Example 3]
Result string: 75

Query string: // returns reported EC50 for input COc1cc(C(=O)O)cc2c1nc(CN1C[C@@H]3[C@H](C1)[C@H]3c1cccc(OCc3ccc(Cl)cc3F)n1)n2C[C@@H]1CCO1 [Example 11]
Result string: 17

Next:
Query string: // returns reported EC50 for input CCn1cncc1Cn1c(CN2C[C@@H]3[C@H](C2)[C@H]3c2cccc(OCc3ccc(Cl)cc3F)n2)nc2ccc(C(=O)O)cc21 [Example 12]
Result string: 97

Query string: // returns reported EC50 for input O=C(O)c1ccc2nc(CN3C[C@@H]4[C@H](C3)[C@H]4c3nc(OCc4ccc(Cl)cc4F)ccc3F)n(C[C@@H]3CCO3)c2c1 [Example 16]
Result string: 47

src = patent US20250066338A1
